Tested on: 565726-208-R1-J5-PDC complex spheroids, growth inhibition
Assay: Anticancer human tumor 565726-208-R1-J5-PDC patient-derived pancreatic adenocarcinoma cell line growth inhibition [RAS]
Conditions: second compound 0.0949 µM; first compound 1 µM; hits give low values
measurement name: viability, T/C (%)
Report the figure in % without appending any unit label.

compound="C=CC(=O)N1CCN(c2nc(OCC3CCCN3C)nc3c(F)c(-c4nc(N)cc(C)c4C(F)(F)F)c(Cl)cc23)C(C)C1 (configuration not stated) + CCn1c(-c2cccnc2C(C)OC)c2c3cc(ccc31)N1CCOC(CC(NC(=O)C(C(C)C)N(C)C(=O)C3(F)CCN(C(=O)C#CC(C)(C)N(C)C)CC3)C(=O)N3CCCC(N3)C(=O)OCC(C)(C)C2)C1" value_reported=94.5

// switching to the query compound
Qu. Which viability, T/C value is on record for CCC(CC)c1cc(NC2CCC(N)C2)n2nccc2n1 (configuration not stated) + CCn1c(-c2cc(N3CCN(C)CC3)cnc2C(C)OC)c2c3cc(ccc31)-c1csc(n1)CC(NC(=O)C1CC1C)C(=O)N1CCCC(N1)C(=O)OCC(C)(C)C2 ?
Ans. 16.8

----------
Tested on: 565726-208-R1-J5-PDC complex spheroids, growth inhibition
Assay: Anticancer human tumor 565726-208-R1-J5-PDC cell line growth inhibition [RAS]
Settings: second compound 1 µM; first compound 0.00949 µM; hits give low values
Description: RAS pathway inhibitors in Combinations in Complex Spheroids A high-throughput screen of multi-cell type tumor spheroids was designed to identify active combinations of RAS pathway inhibitors and targeted small molecules. Complex spheroids include a stromal component modeled by human endothelial cells (HUVEC) and fibroblasts modeled by human mesenchymal stem cells (MSCs). […] Compounds. […] If the clinical Cmax for an agent had not been determined, the highest concentration tested was 10 microM. […]
Measured viability, T/C accompanies every entry in the list below.
# unit: % | format: bare number

compound="CC1(C)CCC(Nc2ncc(C(F)(F)F)c(-c3c[nH]c4c(P(C)(C)=O)c(C#N)ccc34)n2)CN1 (centres undefined) + C=CC(=O)N1CCN(c2nc(OCC3CCCN3C)nc3c(F)c(-c4nc(N)cc(C)c4C(F)(F)F)c(Cl)cc23)C(C)C1" value_reported=41.7
compound="CCc1c2c(nc3ccc(O)cc13)-c1cc3c(c(=O)n1C2)COC(=O)[C@]3(O)CC + C#Cc1c(F)ccc2cc(O)cc(-c3ncc4c(N5CC6CCC(C5)N6)nc(OCC56CCCN5CC(F)C6)nc4c3F)c12" value_reported=35.9
compound="CC1(C)CCC(Nc2ncc(C(F)(F)F)c(-c3c[nH]c4c(P(C)(C)=O)c(C#N)ccc34)n2)CN1 (centres undefined) + C#Cc1c(F)ccc2cc(O)cc(-c3ncc4c(N5CC6CCC(C5)N6)nc(OCC56CCCN5CC(F)C6)nc4c3F)c12" value_reported=46.1

Below: the item to evaluate.
Qu. // returns reported viability, T/C for input CCc1c2c(nc3ccc(O)cc13)-c1cc3c(c(=O)n1C2)COC(=O)[C@]3(O)CC + C=CC(=O)N1CCN(c2nc(OCC3CCCN3C)nc3c(F)c(-c4nc(N)cc(C)c4C(F)(F)F)c(Cl)cc23)C(C)C1
Ans. 35

----------
Reported viability, T/C values are given for each entry in this list.
Tested on: 565726-208-R1-J5-PDC complex spheroids, growth inhibition
Test: Anticancer human tumor 565726-208-R1-J5-PDC cell line growth inhibition [RAS];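 also: spheroids exposed to compounds for seven days before readout; 100% = DMSO vehicle control viability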
Conditions: second compound 0.000949 µM; first compound 1 µM; hits give low values
Expressed in %, but write only the number.

// worked examples, viability, T/C included
compound="CC1(O)CCCC1n1c(=O)c(C(F)F)cc2cnc(NC3CCN(S(C)(=O)=O)CC3)nc21 (centres undefined) + CCn1c(-c2cc(N3CCN(C)CC3)cnc2C(C)OC)c2c3cc(ccc31)-c1csc(n1)CC(NC(=O)C1CC1C)C(=O)N1CCCC(N1)C(=O)OCC(C)(C)C2" system_under_test="565726-208-R1-J5-PDC complex spheroids, growth inhibition" value_reported=50.4
compound="CC(Nc1ccc2c(c1)OCCn1cc(N3C(=O)OCC3C(F)F)nc1-2)C(N)=O (centres undefined) + CCn1c(-c2cc(N3CCN(C)CC3)cnc2C(C)OC)c2c3cc(ccc31)-c1csc(n1)CC(NC(=O)C1CC1C)C(=O)N1CCCC(N1)C(=O)OCC(C)(C)C2" system_under_test="565726-208-R1-J5-PDC complex spheroids, growth inhibition" value_reported=47.7
compound="NC1c2ccccc2OC12CCN(c1cnc3c(N4CCCc5ncccc54)n[nH]c3n1)CC2 (centres undefined) + CCn1c(-c2cccnc2C(C)OC)c2c3cc(ccc31)N1CCOC(CC(NC(=O)C(C(C)C)N(C)C(=O)C3(F)CCN(C(=O)C#CC(C)(C)N(C)C)CC3)C(=O)N3CCCC(N3)C(=O)OCC(C)(C)C2)C1" system_under_test="565726-208-R1-J5-PDC complex spheroids, growth inhibition" value_reported=60.9

Then this compound:
Qu. Fill in the blank: the reported viability, T/C of CCC(CC)c1cc(NC2CCC(N)C2)n2nccc2n1 (centres undefined) + CCn1c(-c2cccnc2C(C)OC)c2c3cc(ccc31)N1CCOC(CC(NC(=O)C(C(C)C)N(C)C(=O)C3(F)CCN(C(=O)C#CC(C)(C)N(C)C)CC3)C(=O)N3CCCC(N3)C(=O)OCC(C)(C)C2)C1 is ____.
Ans. 72

----------
System: 565726-208-R1-J5-PDC complex spheroids, growth inhibition
Test: Anticancer human tumor 565726-208-R1-J5-PDC cell line growth inhibition [RAS];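 also: spheroids exposed to compounds for seven days before readout; 100% = DMSO vehicle control viability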
Settings: second compound 3.16 µM; first compound 3.16 µM; hits give low values
Reported viability, T/C is given for each of the following molecules.
Answer with a number only, understood to be in %.

molecule="CC(C)NCC(C(=O)N1CCN(c2ncnc3c2C(C)CC3O)CC1)c1ccc(Cl)cc1 (stereo not drawn) + C#Cc1c(F)ccc2cc(O)cc(-c3ncc4c(N5CC6CCC(C5)N6)nc(OCC56CCCN5CC(F)C6)nc4c3F)c12" value_reported=38.5
molecule="CC1(O)CCCC1n1c(=O)c(C(F)F)cc2cnc(NC3CCN(S(C)(=O)=O)CC3)nc21 (stereo not drawn) + C#Cc1c(F)ccc2cc(O)cc(-c3ncc4c(N5CC6CCC(C5)N6)nc(OCC56CCCN5CC(F)C6)nc4c3F)c12" value_reported=46.4

In the following, a different molecule is considered.
Qu. Which viability, T/C is reported for this molecule? CCC(CC)c1cc(NC2CCC(N)C2)n2nccc2n1 (stereo not drawn) + C#Cc1c(F)ccc2cc(O)cc(-c3ncc4c(N5CC6CCC(C5)N6)nc(OCC56CCCN5CC(F)C6)nc4c3F)c12
Ans. 0.63

----------
Test system: 565726-208-R1-J5-PDC complex spheroids, growth inhibition
Assay: Anticancer human tumor 565726-208-R1-J5-PDC cell line growth inhibition [RAS]; active = viability on the fitted dose curve at most 10% of control; inactive = the rest;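 also: spheroids exposed to compounds for seven days before readout; 100% = DMSO vehicle control viability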
Conditions: second compound 0.003 µM; first compound 0.0949 µM
Write down the outcome that applies. Available outcomes: 1.0 (active), 0.0 (inactive)

The following molecules have reported results that may help.
molecule="CCc1c2c(nc3ccc(O)cc13)-c1cc3c(c(=O)n1C2)COC(=O)[C@]3(O)CC + CCn1c(-c2cc(N3CCN(C)CC3)cnc2C(C)OC)c2c3cc(ccc31)-c1csc(n1)CC(NC(=O)C1CC1C)C(=O)N1CCCC(N1)C(=O)OCC(C)(C)C2" class=0.0
molecule="CCc1c2c(nc3ccc(O)cc13)-c1cc3c(c(=O)n1C2)COC(=O)[C@]3(O)CC + CCn1c(-c2cccnc2C(C)OC)c2c3cc(ccc31)N1CCOC(CC(NC(=O)C(C(C)C)N(C)C(=O)C3(F)CCN(C(=O)C#CC(C)(C)N(C)C)CC3)C(=O)N3CCCC(N3)C(=O)OCC(C)(C)C2)C1" class=1.0
molecule="CC1(C)CCC(Nc2ncc(C(F)(F)F)c(-c3c[nH]c4c(P(C)(C)=O)c(C#N)ccc34)n2)CN1 (centres undefined) + CCn1c(-c2cccnc2C(C)OC)c2c3cc(ccc31)N1CCOC(CC(NC(=O)C(C(C)C)N(C)C(=O)C3(F)CCN(C(=O)C#CC(C)(C)N(C)C)CC3)C(=O)N3CCCC(N3)C(=O)OCC(C)(C)C2)C1" class=0.0

Now look at this one.
Qu. Which outcome did this test record for the molecule CC1(C)CCC(Nc2ncc(C(F)(F)F)c(-c3c[nH]c4c(P(C)(C)=O)c(C#N)ccc34)n2)CN1 (centres undefined) + CCn1c(-c2cc(N3CCN(C)CC3)cnc2C(C)OC)c2c3cc(ccc31)-c1csc(n1)CC(NC(=O)C1CC1C)C(=O)N1CCCC(N1)C(=O)OCC(C)(C)C2 ?
Ans. 0.0

----------
Tested on: 565726-208-R1-J5-PDC complex spheroids, growth inhibition
Assay: Anticancer human tumor 565726-208-R1-J5-PDC cell line growth inhibition [RAS];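 also: spheroids exposed to compounds for seven days before readout; 100% = DMSO vehicle control viability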
Settings: second compound 0.01 µM; first compound 0.00316 µM; hits give low values
From the text: RAS pathway inhibitors in Combinations in Complex Spheroids A high-throughput screen of multi-cell type tumor spheroids was designed to identify active combinations of RAS pathway inhibitors and targeted small molecules. Complex spheroids include a stromal component modeled by human endothelial cells (HUVEC) and fibroblasts modeled by human mesenchymal stem cells (MSCs). […] Compounds. […] If the clinical Cmax for an agent had not been determined, the highest concentration tested was 10 microM. […]
Below is a list of entries, each paired with its recorded viability, T/C value.
Just the number in %, nothing appended.

Look over these answered cases.
compound="C=CC(=O)Nc1cc(Nc2nccc(-c3cn(C)c4ccccc34)n2)c(OC)cc1N(C)CCN(C)C + C=CC(=O)N1CCN(c2nc(OCC3CCCN3C)nc3c(F)c(-c4nc(N)cc(C)c4C(F)(F)F)c(Cl)cc23)C(C)C1" value_reported=137
compound="CCN1CCN(Cc2ccc(Nc3ncc(F)c(-c4cc(F)c5nc(C)n(C(C)C)c5c4)n3)nc2)CC1 + C=CC(=O)N1CCN(c2nc(OCC3CCCN3C)nc3c(F)c(-c4nc(N)cc(C)c4C(F)(F)F)c(Cl)cc23)C(C)C1" value_reported=101
compound="CC(C)n1nc(-c2ccc3oc(N)nc3c2)c2c(N)ncnc21 + C=CC(=O)N1CCN(c2nc(OCC3CCCN3C)nc3c(F)c(-c4nc(N)cc(C)c4C(F)(F)F)c(Cl)cc23)C(C)C1" value_reported=96.7
compound="O=C(c1ccc(F)c(F)c1Nc1ccc(I)cc1F)N1CC(O)([C@@H]2CCCCN2)C1 + C=CC(=O)N1CCN(c2nc(OCC3CCCN3C)nc3c(F)c(-c4nc(N)cc(C)c4C(F)(F)F)c(Cl)cc23)C(C)C1" value_reported=120

Qu. Which measured viability, T/C value corresponds to Nc1ccn(C2OC(CO)C(O)C2(F)F)c(=O)n1 (stereo not given) + C=CC(=O)N1CCN(c2nc(OCC3CCCN3C)nc3c(F)c(-c4nc(N)cc(C)c4C(F)(F)F)c(Cl)cc23)C(C)C1 ?
Ans. 113
